# measured target: Full length DGKα (D21-10BG, SignalChem) (Homo sapiens, UniProt P23743)
# Sequence (P23743 whole entry): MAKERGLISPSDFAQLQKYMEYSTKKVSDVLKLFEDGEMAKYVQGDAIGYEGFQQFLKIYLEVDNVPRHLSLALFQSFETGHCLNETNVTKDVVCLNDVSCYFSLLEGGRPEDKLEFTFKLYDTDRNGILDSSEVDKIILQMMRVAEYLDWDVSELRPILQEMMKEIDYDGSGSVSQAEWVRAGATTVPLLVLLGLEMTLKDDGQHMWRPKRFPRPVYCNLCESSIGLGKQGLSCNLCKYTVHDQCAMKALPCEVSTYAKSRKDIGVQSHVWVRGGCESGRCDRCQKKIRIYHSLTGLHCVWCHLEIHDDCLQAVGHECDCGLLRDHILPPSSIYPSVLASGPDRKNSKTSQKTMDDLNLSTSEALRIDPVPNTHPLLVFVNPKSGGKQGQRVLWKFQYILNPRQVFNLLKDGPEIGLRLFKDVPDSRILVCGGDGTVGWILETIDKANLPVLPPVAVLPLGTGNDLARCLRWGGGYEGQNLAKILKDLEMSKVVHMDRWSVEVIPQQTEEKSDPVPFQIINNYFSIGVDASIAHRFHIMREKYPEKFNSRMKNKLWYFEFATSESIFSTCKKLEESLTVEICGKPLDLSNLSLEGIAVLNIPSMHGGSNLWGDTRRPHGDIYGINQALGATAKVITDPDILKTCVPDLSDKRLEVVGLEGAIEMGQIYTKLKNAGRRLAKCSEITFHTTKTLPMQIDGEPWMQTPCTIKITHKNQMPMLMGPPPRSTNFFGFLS
Listed here: items and their measured IC50.

Past entries and their recorded results:
| compound | IC50 |
| --- | --- |
| CC[C@H]1CN(C(C)c2ccc3c(c2)OC(C)(C)CO3)[C@H](CC)CN1c1nc(=O)n(C)c2c1nc(CC#N)n2C (single isomer, unassigned) [Compound A64b] | 4.75 µM |
| CC(c1ccc2c(c1)OC(C)(C)CO2)N1C[C@H](C)N(c2c(F)c(=O)n(C)c3c2nc(CC#N)n3C)C[C@H]1C (single isomer, unassigned) [Compound A19b] | 6.94 µM |
| Cc1ccc(C(C)N2C[C@H](C)N(c3cc(=O)n(C)c4c3nc(CC#N)n4C)C[C@H]2C)c(C(F)(F)F)c1 (single isomer, unassigned) | > 150 µM |
| CCn1c(CC#N)nc2c(N3C[C@@H](C)N(C(C)c4cccc(C(F)(F)F)n4)C[C@@H]3C)nc(=O)n(C)c21 (single isomer, unassigned) [Compound A118a] | > 150 µM |

Shifting focus to the compound that follows.
Query string: Provide the reported IC50 (system: Full length DGKα (D21-10BG, SignalChem) (Homo sapiens, UniProt P23743)) for CCn1c(CC#N)nc2c(N3C[C@@H](C)N(C(C)c4ccc5c(c4)C(F)(F)CCO5)C[C@@H]3C)nc(=O)n(C)c21 (some centres unmarked)
Result string: 102 µM

----------
# measured target: Full length DGKζ (in-house protein M1-V929) (Homo sapiens)
# Construct: His (N); TEV site (N)
# Sequence (Q13574 1-929 isoform Q13574-4): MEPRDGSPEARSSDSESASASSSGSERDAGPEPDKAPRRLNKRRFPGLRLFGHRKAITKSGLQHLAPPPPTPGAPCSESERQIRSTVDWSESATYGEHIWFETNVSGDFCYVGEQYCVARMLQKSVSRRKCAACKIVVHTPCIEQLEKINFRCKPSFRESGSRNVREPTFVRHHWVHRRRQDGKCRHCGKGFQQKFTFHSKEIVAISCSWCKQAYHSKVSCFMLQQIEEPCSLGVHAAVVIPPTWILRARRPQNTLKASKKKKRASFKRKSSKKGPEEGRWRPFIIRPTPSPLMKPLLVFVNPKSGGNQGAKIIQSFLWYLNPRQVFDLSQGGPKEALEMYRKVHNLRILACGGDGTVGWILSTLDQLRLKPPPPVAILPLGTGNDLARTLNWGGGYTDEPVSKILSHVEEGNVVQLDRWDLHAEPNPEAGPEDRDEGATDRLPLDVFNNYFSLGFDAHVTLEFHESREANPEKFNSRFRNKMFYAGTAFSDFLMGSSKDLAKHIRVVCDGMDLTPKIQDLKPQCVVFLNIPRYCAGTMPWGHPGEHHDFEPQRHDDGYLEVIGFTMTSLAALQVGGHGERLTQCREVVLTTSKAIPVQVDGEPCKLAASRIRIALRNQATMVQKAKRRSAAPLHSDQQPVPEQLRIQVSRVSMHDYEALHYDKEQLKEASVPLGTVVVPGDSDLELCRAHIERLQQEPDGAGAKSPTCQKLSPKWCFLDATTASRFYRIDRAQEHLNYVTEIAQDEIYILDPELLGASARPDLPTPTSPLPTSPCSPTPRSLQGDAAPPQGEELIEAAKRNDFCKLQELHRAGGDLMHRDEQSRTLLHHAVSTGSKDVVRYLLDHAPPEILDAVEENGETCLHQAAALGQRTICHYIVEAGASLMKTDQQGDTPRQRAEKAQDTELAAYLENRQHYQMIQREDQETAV
# method notes: Biochemical DGK IC50 assay (ADP-Glo, lipid micelle substrate), DGKζ
# assay conditions: 1 hour preincubation, 1 hour reaction, room temperature
Collected pIC50 values appear next to each entry.
pIC50 (log units): -log10 of the concentration in mol/L.

Consider the reported pIC50 for these compounds:
| compound | measured target | measured number |
| --- | --- | --- |
| CCn1c(CC#N)nc2c(N3C[C@@H](C)N(C(C)c4cc5c(cc4Cl)OC(C)(C)O5)C[C@@H]3C)nc(=O)n(C)c21 (stereo partly drawn) | Full length DGKζ (in-house protein M1-V929) (Homo sapiens) | 5.93 |
| CC(c1ccc2c(c1)OC(C)(C)O2)N1C[C@H](C)N(c2nc(=O)n(C)c3c2nc(CC#N)n3C)C[C@H]1C (stereo partly drawn) [Compound A98] | Full length DGKζ (in-house protein M1-V929) (Homo sapiens) | 8.30 |

Now examine the next entry.
Query string: Specify reported pIC50 for the compound shown: CC(c1ccc2c(c1)OC(F)(F)C(F)(F)O2)N1C[C@H](C)N(c2nc(=O)n(C)c3c2nc(CC#N)n3C)C[C@H]1C (single isomer, unassigned) [Compound A79a]
Result string: 7.42

----------
Full length DGKα (D21-10BG, SignalChem) (Homo sapiens, UniProt P23743) data, read-out pIC50
Recall that pIC50 is obtained by taking minus log10 of the concentration measured in molar.

| molecule | measured number |
| --- | --- |
| CC(c1cc2c(cc1F)OCC(C)(C)O2)N1C[C@H](C)N(c2nc(=O)n(C)c3c2nc(CC#N)n3C)C[C@H]1C (single isomer, unassigned) [Compound A69b] | 5.22 |

Query string: System Full length DGKα (D21-10BG, SignalChem) (Homo sapiens, UniProt P23743). Read-out pIC50. Item CC[C@@H]1CN(c2nc(=O)n(C)c3c2nc(CC#N)n3C)[C@@H](C)CN1C(C)c1ccc2c(c1)OC(C)(C)CO2 (single isomer, unassigned) [Compound A63a] . Report value.
Result string: 4.99

Query string: Print Full length DGKα (D21-10BG, SignalChem) (Homo sapiens, UniProt P23743) pIC50 for CC(c1ccc2c(c1)OCCO2)N1C[C@H](C)N(c2c(F)c(=O)n(C)c3c2nc(CC#N)n3C)C[C@H]1C (single isomer, unassigned) [Compound A18a] .
Result string: 4.63

Query string: Recall the reported pIC50 of CC(c1ccc2c(c1)OC(F)(F)C(F)(F)O2)N1C[C@H](C)N(c2nc(=O)n(C)c3c2nc(CC#N)n3C)C[C@H]1C (single isomer, unassigned) [Compound A79b] on Full length DGKα (D21-10BG, SignalChem) (Homo sapiens, UniProt P23743) and write it down.
Result string: 4.83

----------
# measured target: Full length DGKα (D21-10BG, SignalChem) (Homo sapiens)
Labelling field: enter rule met if recorded IC50 is less than 50 µM. Enter rule not met if it equals or exceeds that cut-off.

| molecule | class label |
| --- | --- |
| CCn1c(=O)nc(N2C[C@@H](C)N(C(C)c3ccc4c(c3)OC(C)(C)CO4)C[C@@H]2C)c2nc(CC#N)n(C)c21 (single isomer, unassigned) [Compound A61b] | rule met |
| CC(c1cc(F)c2c(c1)OC(C)(C)CO2)N1C[C@H](C)N(c2nc(=O)n(C)c3c2nc(CC#N)n3C)C[C@H]1C (single isomer, unassigned) [Compound A68b] | rule not met |

Query string: IC50 strictly < 50 µM for this molecule? CC(c1ccc2c(c1)OCCO2)N1C[C@H](C)N(c2nc(=O)n(C)c3c2nc(CC#N)n3C)C[C@H]1C (single isomer, unassigned) [Compound A58a]
Result string: rule met

Query string: Confirm or reject: IC50 of CC(OC(F)F)c1cc(F)ccc1C(C)N1C[C@H](C)N(c2nc(=O)n(C)c3c2nc(CC#N)n3C)C[C@H]1C (single isomer, unassigned) [Compound A29a] lies strictly below 50 µM
Result string: rule not met

Query string: Please state whether IC50 is below 50 µM for CCn1c(CC#N)nc2c(N3C[C@@H](C)N(C(C)c4ccc5c(c4)OC(F)(F)O5)C[C@@H]3C)nc(=O)n(C)c21 (single isomer, unassigned) [Compound A99b]
Result string: rule met

Query string: Strictly below 50 µM in IC50? COC[C@H]1CN(C(C)c2ccc3ncc(C)nc3c2)[C@H](C)CN1c1nc(=O)n(C)c2c1nc(CC#N)n2C (single isomer, unassigned) [Compound A13b]
Result string: rule not met

Query string: Dear reviewer, please state whether CCn1c(CC#N)nc2c(N3C[C@@H](C)N(C(C)c4cc5c(cc4Cl)OCC(C)(C)O5)C[C@@H]3C)nc(=O)n(C)c21 (stereo partly drawn) has IC50 strictly beneath 50 µM.
Result string: rule not met

Query string: Criterion: IC50 strictly below 50 µM. Is it met by CCn1c(CC#N)nc2c(N3C[C@@H](C)N(C(C)c4ccc5c(c4)OC(C)(C)O5)C[C@@H]3C)nc(=O)n(C)c21 (single isomer, unassigned) [Compound A85a] ?
Result string: rule not met

Query string: For this molecule, is IC50 lower than 50 µM? Cc1ccc(C(C)N2C[C@H](C)N(c3nc(=O)n(C)c4c3nc(CC#N)n4C)C[C@H]2C)c(C(F)(F)F)c1 (single isomer, unassigned) [Compound A32b]
Result string: rule met

----------
# measured target: Full length DGKα (D21-10BG, SignalChem) (Homo sapiens, UniProt P23743)
Below: a set of entries, each annotated with reported IC50.

Solved entries:
| compound | result |
| --- | --- |
| CCn1c(CC#N)nc2c(N3C[C@@H](C)N(C(C)c4ccnc(N5CCC5)c4)C[C@@H]3C)nc(=O)n(C)c21 (some centres unmarked) [Compound A121] | > 150 µM |
| CCn1c(CC#N)nc2c(N3C[C@@H](C)N(C(C)c4ccc5c(c4F)OC(C)(C)O5)C[C@@H]3C)nc(=O)n(C)c21 (single isomer, unassigned) [Compound A175b] | 21.4 µM |
| CCn1c(CC#N)nc2c(N3C[C@@H](C)N(C(C)c4ccc5c(c4)OC(C)(C)CC5)C[C@@H]3C)nc(=O)n(C)c21 (single isomer, unassigned) [Compound A94b] | > 150 µM |
| CC(c1ccc2nccnc2c1)N1C[C@H](C)N(c2cc(=O)n(C)c3sc(CC#N)nc23)C[C@H]1C (single isomer, unassigned) [Compound A194a] | 3.95 µM |

API: the following record is the query input.
Query string: State IC50 (Full length DGKα (D21-10BG, SignalChem) (Homo sapiens, UniProt P23743)) of CCn1c(CC#N)nc2c(N3C[C@@H](C)N(C(C)c4ccc(F)c5c4OC(C)(C)O5)C[C@@H]3C)nc(=O)n(C)c21 (single isomer, unassigned) [Compound A185a] .
Result string: 121 µM

----------
# measured target: Full length DGKα (D21-10BG, SignalChem) (Homo sapiens, UniProt P23743)
Strictly below 30 µM in IC50: met. Otherwise: not met.

| compound | measured target | class label |
| --- | --- | --- |
| CCn1c(CC#N)nc2c(N3C[C@@H](C)N(C(C)c4ccc5c(c4)C(C)(C)CO5)C[C@@H]3C)nc(=O)n(C)c21 (some centres unmarked) [Compound A183] | Full length DGKα (D21-10BG, SignalChem) (Homo sapiens, UniProt P23743) | not met |
| Cc1cccc(C(C)N2C[C@H](C)N(c3c(F)c(=O)n(C)c4c3nc(CC#N)n4C)C[C@H]2C)c1C(F)(F)F (single isomer, unassigned) [Compound A17b] | Full length DGKα (D21-10BG, SignalChem) (Homo sapiens, UniProt P23743) | met |
| CCn1c(CC#N)nc2c(N3C[C@@H](C)N(C(C)c4nc5c(cc4F)OCC(C)(C)O5)C[C@@H]3C)nc(=O)n(C)c21 (single isomer, unassigned) [Compound A161b] | Full length DGKα (D21-10BG, SignalChem) (Homo sapiens, UniProt P23743) | not met |
| CC(c1ccc2c(c1)OC(F)(F)C(F)(F)O2)N1C[C@H](C)N(c2nc(=O)n(C)c3c2nc(CC#N)n3C)C[C@H]1C (single isomer, unassigned) [Compound A79a] | Full length DGKα (D21-10BG, SignalChem) (Homo sapiens, UniProt P23743) | met |

Query string: Is IC50 of CCn1c(CC#N)nc2c(N3C[C@@H](C)N(C(C)c4ccc5c(c4)OC(F)(F)O5)C[C@@H]3C)nc(=O)n(C)c21 (single isomer, unassigned) [Compound A99a] strictly below 30 µM?
Result string: not met

Query string: Item CC(c1ccc2nccnc2c1)N1C[C@H](C)N(c2cc(=O)n(C)c3c2nc(CC#N)n3C)C[C@H]1C (single isomer, unassigned) [Compound A1a] : IC50 beneath 30 µM, strictly?
Result string: met

Query string: Dear reviewer, please state whether CCn1c(CC#N)nc2c(N3C[C@@H](C)N(C(C)c4cc(F)c5c(c4)OC(C)(C)O5)C[C@@H]3C)nc(=O)n(C)c21 (single isomer, unassigned) [Compound A173a] has IC50 strictly beneath 30 µM.
Result string: not met

Query string: I wonder whether CCn1c(=O)nc(N2C[C@@H](C)N(C(C)c3ccc4ncc(C)nc4c3)C[C@@H]2C)c2nc(CC#N)n(C)c21 (single isomer, unassigned) [Compound A53b] has IC50 below 30 µM. Can you tell?
Result string: not met

Query string: Given CCn1c(CC#N)nc2c(N3C[C@@H](C)N(C(C)c4cc(F)c5c(c4)OC(C)(C)O5)C[C@@H]3C)nc(=O)n(C)c21 (single isomer, unassigned) [Compound A173b] , is recorded IC50 strictly lower than 30 µM?
Result string: not met

Query string: # strict comparison: is reported IC50 < 30 µM? input = CCn1c(CC#N)nc2c(N3C[C@@H](C)N(C(=O)c4ccc5c(n4)C(C)(C)CO5)C[C@@H]3C)nc(=O)n(C)c21 [Compound A182]
Result string: not met

Query string: Determine if CCn1c(CC#N)nc2c(N3C[C@@H](C)N(C(C)c4cccc(C(F)(F)F)c4)C[C@@H]3C)nc(=O)n(C)c21 (single isomer, unassigned) [Compound A42b] shows IC50 strictly lower than 30 µM.
Result string: not met
